run_description: Selectivity index, ratio of IC50 for African green monkey Vero cells to IC50 for synchronized ring stage Plasmodium falciparum 3D7 transfected with nano-luciferase
Format: toxicity
conditions: read-out: Ratio IC50
In this section we review reported selectivity ratio values for a set of molecules.
Note: the reply should be a number with no unit written.

Record excerpt, results attached:
[[record]]
molecule = "C/C(=C\\CSc1ccccc1C(=O)O)CCCC(C)CCCC(C)CCCC(C)C (stereo not given)"
data_value = 3.87

[[record]]
molecule = "CCCCCCCCCCCCCCCCn1cc(CSc2ccccc2C(=O)O)nn1"
data_value = 1.86

[[record]]
molecule = "C/C(=C\\Cn1cc(CSc2ccccc2C(=O)O)nn1)CCCC(C)CCCC(C)CCCC(C)C (stereo not given)"
data_value = 3.67


Consider the record given below.
Looking for the measured selectivity ratio of CCCCCCCCCCCCCn1cc(CSc2ccccc2C(=O)O)nn1 , can you help? 2.99

* * *

Test system: Plasmodium falciparum
run_description: Antimalarial activity against synchronized ring stage Plasmodium falciparum 3D7 transfected with nano-luciferase assessed as parasite growth inhibition after 72 hrs by Nano-Glo luciferase assay
Type: functional, organism-based
conditions: 3D7, 72 h
pIC50: −log10 of the molar value.
property_label: pIC50

Record excerpt, results attached:
[[record]]
compound = "O=C(O)c1ccccc1SCc1cn(C2CCCCC2)nn1"
target_of_assay = "Plasmodium falciparum"
data_value = "< 3.70"

[[record]]
compound = "CCCCCCCCCCCCCCCCn1cc(CSc2ccccc2C(=O)O)nn1"
target_of_assay = "Plasmodium falciparum"
data_value = 4.84

[[record]]
compound = "C/C(=C\\Cn1cc(CSc2ccccc2C(=O)O)nn1)CCCC(C)CCCC(C)CCCC(C)C (centres undefined)"
target_of_assay = "Plasmodium falciparum"
data_value = 5.01

[[record]]
compound = "CCOC(=O)CCn1cc(CSc2ccccc2C(=O)O)nn1"
target_of_assay = "Plasmodium falciparum"
data_value = "< 3.70"

[[record]]
compound = "O=C(O)c1ccccc1SCc1cn(CCCc2ccccc2)nn1"
target_of_assay = "Plasmodium falciparum"
data_value = "< 3.70"

[[record]]
compound = "CC(C)=CCC/C(C)=C/CSc1ccccc1C(=O)O"
target_of_assay = "Plasmodium falciparum"
data_value = "< 3.70"


Looking for the measured pIC50 of CC(C)=CCn1cc(CSc2ccccc2C(=O)O)nn1 , can you help? < 3.70

Looking for the measured pIC50 of CCOC(=O)CCSc1ccccc1C(=O)O , can you help? < 3.70

Looking for the measured pIC50 of O=C(O)c1ccccc1SCc1cn(C/C=C/c2ccccc2)nn1 , can you help? 4.18

Looking for the measured pIC50 of CCCCCCCCn1cc(CSc2ccccc2C(=O)O)nn1 , can you help? < 3.70

* * *

Test system: Plasmodium falciparum
run_description: Antimalarial activity against synchronized ring stage Plasmodium falciparum 3D7 transfected with nano-luciferase assessed as parasite growth inhibition after 72 hrs by Nano-Glo luciferase assay
Format: functional, organism-based
conditions: 3D7, 72 h
pIC50: −log10 of the molar value.
In this section we review reported pIC50 values for a set of compounds.

[[record]]
smiles_text = "CC(C)=CCSc1ccccc1C(=O)O"
property_label = "pIC50"
data_value = "< 3.70"


Looking for the measured pIC50 of CC(C)=CCC/C(C)=C/Cn1cc(CSc2ccccc2C(=O)O)nn1 , can you help? < 3.70

Looking for the measured pIC50 of CCCCCCCCCCCCCn1cc(CSc2ccccc2C(=O)O)nn1 , can you help? 4.70

Looking for the measured pIC50 of O=C(O)c1ccccc1SC/C=C/c1ccccc1 , can you help? < 3.70

Looking for the measured pIC50 of CC(C)=CCC/C(C)=C/CC/C(C)=C/Cn1cc(CSc2ccccc2C(=O)O)nn1 , can you help? 4.59

Looking for the measured pIC50 of O=C(O)c1ccccc1SCc1cn(Cc2ccccc2)nn1 , can you help? < 3.70

Looking for the measured pIC50 of C#CCSc1ccccc1C(=O)O , can you help? < 3.70

* * *

run_description: Selectivity index, ratio of IC50 for African green monkey Vero cells to IC50 for synchronized ring stage Plasmodium falciparum 3D7 transfected with nano-luciferase
Assay type: toxicity
conditions: read-out: Ratio IC50
property_label: selectivity ratio

[[record]]
molecule = "O=C(O)c1ccccc1SCc1cn(C/C=C/c2ccccc2)nn1"
property_label = "selectivity ratio"
data_value = "> 3.06"

[[record]]
molecule = "O=C(O)c1ccccc1SCc1cn(Cc2ccc3ccccc3c2)nn1"
property_label = "selectivity ratio"
data_value = 6.95


Consider the record given below.
Looking for the measured selectivity ratio of CC(C)=CCC/C(C)=C/CC/C(C)=C/CSc1ccccc1C(=O)O [SALIRASIB] , can you help? 10.3

* * *

In this section we review reported pIC50 values for a set of compounds.
Test system: Vero
run_description: Cytotoxicity against African green monkey Vero cells after 72 hrs by MTT assay
Format: cell-based
conditions: Chlorocebus sabaeus
// returns pIC50 (minus log10 of molar concentration), number only

[[record]]
compound = "C/C(=C\\CSc1ccccc1C(=O)O)CCCC(C)CCCC(C)CCCC(C)C (stereo not drawn)"
property_label = "pIC50"
data_value = 4.28

[[record]]
compound = "CC(C)=CCC/C(C)=C/CC/C(C)=C/CSc1ccccc1C(=O)O"
property_label = "pIC50"
data_value = 3.68

[[record]]
compound = "O=C(O)c1ccccc1SCc1cn(Cc2ccc3ccccc3c2)nn1"
property_label = "pIC50"
data_value = 3.84

[[record]]
compound = "CCCCCCCCCCCCCn1cc(CSc2ccccc2C(=O)O)nn1"
property_label = "pIC50"
data_value = 4.23

[[record]]
compound = "C/C(=C\\Cn1cc(CSc2ccccc2C(=O)O)nn1)CCCC(C)CCCC(C)CCCC(C)C (stereo not drawn)"
property_label = "pIC50"
data_value = 4.47


Consider the record given below.
Looking for the measured pIC50 of CCCCCCCCCCCCCCCCn1cc(CSc2ccccc2C(=O)O)nn1 , can you help? 4.57

* * *

In this section we review reported IC50 values for a set of compounds.
Tested on: Plasmodium falciparum
run_description: Antimalarial activity against synchronized ring stage Plasmodium falciparum 3D7 transfected with nano-luciferase assessed as parasite growth inhibition after 72 hrs by Nano-Glo luciferase assay
Format: functional, organism-based
conditions: 3D7, 72 h

[[record]]
compound = "CCCCCCCCCCn1cc(CSc2ccccc2C(=O)O)nn1"
data_value = "> 200 µM"


Looking for the measured IC50 of CCOC(=O)Cn1cc(CSc2ccccc2C(=O)O)nn1 , can you help? > 200 µM

Looking for the measured IC50 of O=C(O)c1ccccc1SCc1cn(Cc2ccc3ccccc3c2)nn1 , can you help? 20.5 µM

* * *

Tested on: Plasmodium falciparum
run_description: Antimalarial activity against synchronized ring stage Plasmodium falciparum 3D7 transfected with nano-luciferase assessed as parasite growth inhibition after 72 hrs by Nano-Glo luciferase assay
Format: functional, organism-based
conditions: 3D7, 72 h
property_label: IC50

Record excerpt, results attached:
[[record]]
compound = "O=C(O)c1ccccc1SCc1cn(CCc2ccccc2)nn1"
target_of_assay = "Plasmodium falciparum"
data_value = "> 200 µM"

[[record]]
compound = "CC(C)=CCC/C(C)=C/CC/C(C)=C/CSc1ccccc1C(=O)O"
target_of_assay = "Plasmodium falciparum"
data_value = "20.3 µM"

[[record]]
compound = "C/C(=C\\CSc1ccccc1C(=O)O)CCCC(C)CCCC(C)CCCC(C)C (stereo unspecified)"
target_of_assay = "Plasmodium falciparum"
data_value = "13.4 µM"


Looking for the measured IC50 of CCCCCCCCSc1ccccc1C(=O)O , can you help? > 200 µM

Looking for the measured IC50 of O=C(O)c1ccccc1SC1CCCCC1 , can you help? > 200 µM

Looking for the measured IC50 of CCCCCCCCCCSc1ccccc1C(=O)O , can you help? > 200 µM
